Molecular target: GST-Aq-NF-kB (Amphimedon queenslandica, UniProt A9Y5G7 2-389)
Sequence: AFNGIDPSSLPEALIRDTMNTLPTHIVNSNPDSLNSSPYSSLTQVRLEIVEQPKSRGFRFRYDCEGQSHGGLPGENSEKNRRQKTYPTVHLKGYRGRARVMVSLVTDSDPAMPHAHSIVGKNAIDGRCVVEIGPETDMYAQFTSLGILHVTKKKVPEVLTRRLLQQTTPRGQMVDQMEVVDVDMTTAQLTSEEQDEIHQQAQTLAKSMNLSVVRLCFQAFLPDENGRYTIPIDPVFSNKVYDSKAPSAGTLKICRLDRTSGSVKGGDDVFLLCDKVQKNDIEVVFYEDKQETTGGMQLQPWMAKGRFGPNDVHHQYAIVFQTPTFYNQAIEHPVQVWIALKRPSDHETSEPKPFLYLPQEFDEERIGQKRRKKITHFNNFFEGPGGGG
Test: protein-binding microarray (PBM); PBM: ~300 nM protein, 6 mM HEPES pH 7.8, 80 mM KCl, 0.5 mM EDTA, 0.5 mM EGTA, 6% glycerol, 35 ng/ul poly-dIdC, 1% milk, 1 h, room temperature; high values mean tight binding
Conditions: dsDNA, one strand shown

Record Sequence	Unit Descriptor	binding signal
CCGATTAACATCAAACCCCCCCCTGATGTTAATCGGGTCTTGATTCGCTTGACGCTGCTG	z-score	5.35
CCGATTAACATCAAACCCCCCCTTGATGTTAATCGGGTCTTGATTCGCTTGACGCTGCTG	z-score	5.59
CCGATTAACATCAGGGTAATACCTGATGTTAATCGGGTCTTGATTCGCTTGACGCTGCTG	z-score	7.45
CCGATTAACATCAAGGGGGAATCTGATGTTAATCGGGTCTTGATTCGCTTGACGCTGCTG	z-score	6.38
CCGATTAACATCAGGAAAATACCTGATGTTAATCGGGTCTTGATTCGCTTGACGCTGCTG	z-score	4.29
CCGATTAACATCAAACACCCCCCTGATGTTAATCGGGTCTTGATTCGCTTGACGCTGCTG	z-score	5.86
CCGATTAACATCAAGGGTATTCCTGATGTTAATCGGGTCTTGATTCGCTTGACGCTGCTG	z-score	5.86
CCGATTAACATCAGGGAATATTATGATGTTAATCGGGTCTTGATTCGCTTGACGCTGCTG	z-score	5.75
CCGATTAACATCAAAGTTTCCCCTGATGTTAATCGGGTCTTGATTCGCTTGACGCTGCTG	z-score	7.26

====

Molecular target: GST-Dm-Relish (Drosophila melanogaster, UniProt Q94527 99-473)
Sequence: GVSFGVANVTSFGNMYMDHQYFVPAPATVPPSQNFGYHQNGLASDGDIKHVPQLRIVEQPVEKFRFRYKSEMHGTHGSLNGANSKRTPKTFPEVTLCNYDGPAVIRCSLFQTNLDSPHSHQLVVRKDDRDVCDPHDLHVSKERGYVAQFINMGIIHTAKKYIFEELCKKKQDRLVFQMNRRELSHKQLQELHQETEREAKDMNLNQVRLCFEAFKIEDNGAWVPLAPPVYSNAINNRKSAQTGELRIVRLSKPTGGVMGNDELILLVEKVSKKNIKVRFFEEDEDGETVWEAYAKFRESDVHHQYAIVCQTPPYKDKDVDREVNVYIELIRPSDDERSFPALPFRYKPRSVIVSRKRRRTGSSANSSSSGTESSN
Test: protein-binding microarray (PBM); PBM: ~300 nM protein, 6 mM HEPES pH 7.8, 80 mM KCl, 0.5 mM EDTA, 0.5 mM EGTA, 6% glycerol, 35 ng/ul poly-dIdC, 1% milk, 1 h, room temperature; high values mean tight binding
Details: dsDNA, one strand shown
Recorded Endpoint: binding signal (z-score)

Record Sequence	Recorded Endpoint	Unit Descriptor	Endpoint Value
CCGATTAACATCAGGGGAGTACCTGATGTTAATCGGGTCTTGATTCGCTTGACGCTGCTG	binding signal	z-score	7.86
CCGATTAACATCAGGGAGAACCCTGATGTTAATCGGGTCTTGATTCGCTTGACGCTGCTG	binding signal	z-score	4.39
CCGATTAACATCAGGGAAAAATATGATGTTAATCGGGTCTTGATTCGCTTGACGCTGCTG	binding signal	z-score	2.03
CCGATTAACATCAGGGACTTCACTGATGTTAATCGGGTCTTGATTCGCTTGACGCTGCTG	binding signal	z-score	7.9
CCGATTAACATCAGAAAATCACCTGATGTTAATCGGGTCTTGATTCGCTTGACGCTGCTG	binding signal	z-score	6.91

====

Biological target: GST-Nv-NF-kB (Cys allele) (Nematostella vectensis, UniProt E5G601 2-411)
Sequence: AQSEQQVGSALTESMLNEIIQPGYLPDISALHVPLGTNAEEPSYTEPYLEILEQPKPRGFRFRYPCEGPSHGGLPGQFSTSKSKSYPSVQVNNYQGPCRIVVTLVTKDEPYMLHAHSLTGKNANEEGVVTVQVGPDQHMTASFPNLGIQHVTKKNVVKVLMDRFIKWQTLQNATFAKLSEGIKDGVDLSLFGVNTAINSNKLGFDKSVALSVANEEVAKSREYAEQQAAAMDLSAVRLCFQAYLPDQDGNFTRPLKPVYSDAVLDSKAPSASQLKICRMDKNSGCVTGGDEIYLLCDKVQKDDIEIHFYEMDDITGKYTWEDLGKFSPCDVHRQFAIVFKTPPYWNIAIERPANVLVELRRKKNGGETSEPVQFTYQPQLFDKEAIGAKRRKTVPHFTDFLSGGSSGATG
Test: protein-binding microarray (PBM); PBM: ~300 nM protein, 6 mM HEPES pH 7.8, 80 mM KCl, 0.5 mM EDTA, 0.5 mM EGTA, 6% glycerol, 35 ng/ul poly-dIdC, 1% milk, 1 h, room temperature; high values mean tight binding
Details: dsDNA, one strand shown
Recorded Endpoint: binding signal

Record Sequence	Endpoint Value
CCGATTAACATCAGGAACGTCCCTGATGTTAATCGGGTCTTGATTCGCTTGACGCTGCTG	3.14 z-score
CCGATTAACATCAGAATCTCCCATGATGTTAATCGGGTCTTGATTCGCTTGACGCTGCTG	2.74 z-score
CCGATTAACATCACGGTGTTTCCTGATGTTAATCGGGTCTTGATTCGCTTGACGCTGCTG	1.22 z-score
CCGATTAACATCAGGGGGTTCTATGATGTTAATCGGGTCTTGATTCGCTTGACGCTGCTG	5.57 z-score
CCGATTAACATCAAGGGATCCCCTGATGTTAATCGGGTCTTGATTCGCTTGACGCTGCTG	5.8 z-score
CCGATTAACATCAGGGATTTTACTGATGTTAATCGGGTCTTGATTCGCTTGACGCTGCTG	3.99 z-score
CCGATTAACATCACCTTTCCCCCTGATGTTAATCGGGTCTTGATTCGCTTGACGCTGCTG	6.31 z-score
CCGATTAACATCAAATTTCCCCTTGATGTTAATCGGGTCTTGATTCGCTTGACGCTGCTG	10.8 z-score
CCGATTAACATCAGGCGATTCCCTGATGTTAATCGGGTCTTGATTCGCTTGACGCTGCTG	2.99 z-score

====

Biological target: GST-Nv-NF-kB (Cys allele) (Nematostella vectensis, UniProt E5G601 2-411)
Sequence: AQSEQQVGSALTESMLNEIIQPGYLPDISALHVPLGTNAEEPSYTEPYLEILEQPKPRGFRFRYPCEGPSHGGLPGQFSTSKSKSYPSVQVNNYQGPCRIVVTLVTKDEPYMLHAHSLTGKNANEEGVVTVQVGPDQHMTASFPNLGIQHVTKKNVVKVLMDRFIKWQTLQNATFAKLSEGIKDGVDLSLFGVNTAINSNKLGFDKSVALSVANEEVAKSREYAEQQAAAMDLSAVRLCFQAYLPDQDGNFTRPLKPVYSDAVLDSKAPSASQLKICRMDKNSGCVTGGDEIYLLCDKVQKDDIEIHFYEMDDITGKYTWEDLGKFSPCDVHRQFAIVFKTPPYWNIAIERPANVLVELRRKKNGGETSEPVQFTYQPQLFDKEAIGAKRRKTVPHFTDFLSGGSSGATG
Assay: protein-binding microarray (PBM); PBM: ~300 nM protein, 6 mM HEPES pH 7.8, 80 mM KCl, 0.5 mM EDTA, 0.5 mM EGTA, 6% glycerol, 35 ng/ul poly-dIdC, 1% milk, 1 h, room temperature; Ap Aiptasia and Nv Nematostella (sea anemones) / Co Capsaspora / Aq Amphimedon (sponge) / Dm Drosophila / Hu human; RHD is the Rel homology domain; high values mean tight binding
Conditions: dsDNA, one strand shown

Record Sequence	binding signal [z-score]
CCGATTAACATCACCCATGGGAATGATGTTAATCGGGTCTTGATTCGCTTGACGCTGCTG	1.13
CCGATTAACATCAAAAATACCCATGATGTTAATCGGGTCTTGATTCGCTTGACGCTGCTG	6.47
CCGATTAACATCAGGGACTTTACTGATGTTAATCGGGTCTTGATTCGCTTGACGCTGCTG	6.47
CCGATTAACATCAAGGAATTCCCTGATGTTAATCGGGTCTTGATTCGCTTGACGCTGCTG	7.7
CCGATTAACATCAGGCAATCCCCTGATGTTAATCGGGTCTTGATTCGCTTGACGCTGCTG	7.19
CCGATTAACATCAGGGGACTCCATGATGTTAATCGGGTCTTGATTCGCTTGACGCTGCTG	4.64
CCGATTAACATCAGGGAATAACCTGATGTTAATCGGGTCTTGATTCGCTTGACGCTGCTG	6.79
CCGATTAACATCACGGGGGATTCTGATGTTAATCGGGTCTTGATTCGCTTGACGCTGCTG	7.68
CCGATTAACATCATCCCTCCCCATGATGTTAATCGGGTCTTGATTCGCTTGACGCTGCTG	2.72

Data origin: paper PMC5700166
